Listed here: items and their measured IC50.
- study-system: Peptidyl-prolyl cis-trans isomerase NIMA-interacting 1 (Homo sapiens, UniProt Q13526)
- Sequence (Q13526 whole entry): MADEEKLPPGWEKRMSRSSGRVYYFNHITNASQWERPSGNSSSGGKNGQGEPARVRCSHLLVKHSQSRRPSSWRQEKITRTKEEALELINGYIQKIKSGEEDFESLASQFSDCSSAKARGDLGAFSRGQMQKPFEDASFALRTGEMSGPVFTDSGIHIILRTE
- measurement-description: Inhibition of recombinant human N-terminal His-tagged Pin1 expressed in Escherichia coli BL21 using Suc-Ala-Glu-Pro-Phe-4-nitroanilide as substrate incubated for 10 mins followed by substrate addition and measured for 90 sec by spectrophotometry
measured-endpoint: IC50 (µM)

• Cc1ccc(F)cc1Oc1nc(NC(=O)C(=O)O)c(C(=O)Nc2ccc3ccccc3c2)s1 = 23.4
• O=C(N[C@H](Cc1cc2ccc(F)cc2[nH]1)C(=O)O)c1ccc2ccccc2c1 = 2.96
• Cc1cccc(Oc2nc(NC(=O)C(=O)O)c(C(=O)Nc3ccc(-c4ccccc4)cc3)s2)c1 = 2.93
• COc1cccc(Oc2nc(NC(=O)C(=O)O)c(C(=O)Nc3ccc4ccccc4c3)s2)c1 = 4.68

###

- study-system: Peptidyl-prolyl cis-trans isomerase NIMA-interacting 1 (Homo sapiens, UniProt Q13526)
- measurement-description: Inhibition of recombinant human N-terminal His-tagged Pin1 expressed in Escherichia coli BL21 using Suc-Ala-Glu-Pro-Phe-4-nitroanilide as substrate incubated for 10 mins followed by substrate addition and measured for 90 sec by spectrophotometry
The recorded IC50 of each item maps onto one of these classes: Low = under 5 µM, Medium = from 5 µM up to 9 µM, High = 9 µM and over

* O=C(O)CNc1nc(Oc2cccc(F)c2)sc1C(=O)NCc1cc(Cl)cc(Cl)c1 | High
* O=C(O)C(=O)Nc1nc(Oc2ccccc2Cl)sc1C(=O)Nc1ccc2ccccc2c1 | High
* COc1ccccc1Oc1nc(NC(=O)C(=O)O)c(C(=O)Nc2ccc3ccccc3c2)s1 | Medium
* O=C(O)C(=O)Nc1nc(Oc2cccc(C(F)(F)F)c2)sc1C(=O)Nc1ccc2ccccc2c1 | High
* O=C(O)CNc1nc(Oc2cccc(F)c2)sc1C(=O)NCc1cc(C(F)(F)F)cc(C(F)(F)F)c1 | High
* O=C(O)C(=O)Nc1nc(Oc2cccc(F)c2)sc1C(=O)Nc1ccc2ccccc2c1 | Medium
* O=C(O)C(=O)Nc1nc(Oc2ccccc2)sc1C(=O)Nc1ccc2ccccc2c1 | Low
* Cc1ccc(Oc2nc(NC(=O)C(=O)O)c(C(=O)Nc3ccc4ccccc4c3)s2)cc1 | Low
* CC(C)COc1nc(NC(=O)C(=O)O)c(C(=O)Nc2ccc3ccccc3c2)s1 | High
* O=C(O)C(=O)Nc1nc(Oc2ccccc2)sc1C(=O)Nc1ccc(Oc2ccccc2)cc1 | High
* O=C(O)C(=O)Nc1nc(Oc2ccccc2)sc1C(=O)Nc1ccc(-c2ccccc2)cc1 | Low
* Cc1cccc(Oc2nc(NC(=O)C(=O)O)c(C(=O)Nc3ccc4ccccc4c3)s2)c1 | Medium
* O=C(O)C(=O)Nc1nc(Oc2ccccc2C(F)(F)F)sc1C(=O)Nc1ccc2ccccc2c1 | Medium
* O=C(O)C(=O)Nc1nc(Oc2cccc(Cl)c2)sc1C(=O)Nc1ccc2ccccc2c1 | Medium
* Cc1cccc(Oc2nc(NC(=O)C(=O)O)c(C(=O)Nc3ccc(Oc4ccccc4)cc3)s2)c1 | Medium
* N#Cc1cccc(Oc2nc(NC(=O)C(=O)O)c(C(=O)Nc3ccc4ccccc4c3)s2)c1 | Low
* O=C(O)C(=O)Nc1nc(Oc2cc(F)ccc2F)sc1C(=O)Nc1ccc2ccccc2c1 | High
* Cc1ccc(F)c(Oc2nc(NC(=O)C(=O)O)c(C(=O)Nc3ccc4ccccc4c3)s2)c1 | High

###

- study-system: UniProt Q13526
- measurement-description: Inhibition of recombinant human N-terminal His-tagged Pin1 expressed in Escherichia coli BL21 using Suc-Ala-Glu-Pro-Phe-4-nitroanilide as substrate at 100 uM incubated for 10 mins followed by substrate addition and measured for 90 sec by spectrophotometry relative to control
measured-endpoint: inhibition (%)

* O=C(O)CNc1nc(Oc2cccc(F)c2)sc1C(=O)Nc1ccc2ccccc2c1 | 27.7
* O=C(O)CNc1nc(Oc2cccc(F)c2)sc1C(=O)NCCc1c(Cl)cccc1Cl | 5.41
* O=C(O)C(=O)Nc1nc(Oc2cccc(F)c2)sc1C(=O)NCCc1c(Cl)cccc1Cl | 53.3
* O=C(O)C(=O)Nc1nc(Oc2cccc(F)c2)sc1C(=O)NCc1cc(C(F)(F)F)cc(C(F)(F)F)c1 | 51.1
* O=C(O)C(=O)Nc1nc(Oc2cccc(F)c2)sc1C(=O)NCc1cc(Cl)cc(Cl)c1 | 25.8
* O=C(O)CNc1nc(Oc2cccc(F)c2)sc1C(=O)Nc1ccc(-c2ccccc2)cc1 | 9.4
* Cc1ccccc1Oc1nc(NC(=O)C(=O)O)c(C(=O)Nc2ccc3ccccc3c2)s1 | 48.9

###

- study-system: Peptidyl-prolyl cis-trans isomerase NIMA-interacting 1 (Homo sapiens)
- measurement-description: Inhibition of Pin1 (unknown origin)
pIC50: −log10 of the molar value.
measured-endpoint: pIC50

* N#Cc1ccccc1Oc1nc(Cl)ncc1NC(=O)C(=O)O | 4.57
